Attribute: inhibition at 10 µM
experimental target: human PDE9A (Homo sapiens)
Construct: expressed in transfected cells; host or cells: AD293 (transient transfection)
Sequence (O76083 whole entry): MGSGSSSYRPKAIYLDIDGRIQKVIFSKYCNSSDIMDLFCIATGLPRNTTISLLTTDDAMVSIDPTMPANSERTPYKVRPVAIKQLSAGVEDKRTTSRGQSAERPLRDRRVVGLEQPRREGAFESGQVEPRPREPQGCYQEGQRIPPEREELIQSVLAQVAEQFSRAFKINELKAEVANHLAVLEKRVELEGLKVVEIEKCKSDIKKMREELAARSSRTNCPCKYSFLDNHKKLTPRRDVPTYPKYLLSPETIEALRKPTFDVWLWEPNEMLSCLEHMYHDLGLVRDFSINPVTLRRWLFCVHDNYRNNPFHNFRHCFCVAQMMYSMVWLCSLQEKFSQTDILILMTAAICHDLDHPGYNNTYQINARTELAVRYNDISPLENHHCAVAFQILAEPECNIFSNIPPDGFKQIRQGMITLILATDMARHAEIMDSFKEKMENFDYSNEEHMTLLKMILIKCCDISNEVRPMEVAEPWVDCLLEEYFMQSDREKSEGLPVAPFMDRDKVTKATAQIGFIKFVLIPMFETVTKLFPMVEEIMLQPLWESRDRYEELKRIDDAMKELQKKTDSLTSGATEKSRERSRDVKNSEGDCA
protocol notes: Phosphodiesterase activity, AD293 cells transiently transfected with human PDE9A
Assay type: biochemical
condition notes: 10 µM compound; read-out: Percentage inhibition at 10µM (PDE9A)
assay readout: inhibition at 10 µM (%)

{"smiles structure": "N#Cc1c(-c2ccccc2)cc(-c2ccc(F)cc2)nc1N", "number": 1}
{"smiles structure": "N#Cc1c(-c2ccccc2Cl)cc(-c2ccc(O)cc2)nc1N", "number": 25}
{"smiles structure": "Cc1ccccc1-c1cc(C2CCCCC2)c(C#N)c(N)n1", "number": 9}
{"smiles structure": "N#Cc1c(C2CCCCC2)cc(-c2cccs2)nc1N", "number": 6}
{"smiles structure": "COc1ccccc1-c1cc(-c2ccco2)nc(N)c1C#N", "number": 17}

###

experimental target: human PDE7B (Homo sapiens)
Construct: expressed in transfected cells; host or cells: AD293 (transient transfection)
Sequence (Q9NP56 whole entry): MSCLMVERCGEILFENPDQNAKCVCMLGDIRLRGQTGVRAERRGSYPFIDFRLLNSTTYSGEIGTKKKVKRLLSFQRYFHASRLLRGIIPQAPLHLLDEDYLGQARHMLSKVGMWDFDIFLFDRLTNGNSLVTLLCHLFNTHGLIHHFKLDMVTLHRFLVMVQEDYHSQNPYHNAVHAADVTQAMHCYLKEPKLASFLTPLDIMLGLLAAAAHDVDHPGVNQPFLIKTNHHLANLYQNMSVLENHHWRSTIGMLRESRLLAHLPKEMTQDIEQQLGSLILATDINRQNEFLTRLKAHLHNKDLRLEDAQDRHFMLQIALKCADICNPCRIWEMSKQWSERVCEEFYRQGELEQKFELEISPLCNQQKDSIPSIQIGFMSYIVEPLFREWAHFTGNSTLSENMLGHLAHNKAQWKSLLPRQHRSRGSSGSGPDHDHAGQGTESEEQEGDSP
protocol notes: Phosphodiesterase activity, AD293 cells transiently transfected with human PDE7B
Assay type: biochemical
condition notes: 10 µM compound; read-out: Percentage inhibition at 10µM (PDE7B)

{"smiles structure": "N#Cc1c(C2CCCCC2)cc(-c2ccccc2)nc1N", "inhibition at 10 µM [%]": 55}
{"smiles structure": "N#Cc1c(-c2ccccc2)cc(-c2ccc(O)cc2)nc1N", "inhibition at 10 µM [%]": 39}
{"smiles structure": "COc1ccccc1-c1cc(-c2ccccc2C)nc(N)c1C#N", "inhibition at 10 µM [%]": 23}
{"smiles structure": "COc1ccc(-c2cc(-c3ccc(O)cc3)nc(N)c2C#N)cc1", "inhibition at 10 µM [%]": 44}
{"smiles structure": "N#Cc1c(-c2ccccc2)cc(-c2ccc(F)cc2)nc1N", "inhibition at 10 µM [%]": 28}
{"smiles structure": "N#Cc1c(-c2ccc3c(c2)OCO3)cc(-c2ccccc2)nc1N", "inhibition at 10 µM [%]": 8}
{"smiles structure": "COc1ccccc1-c1cc(-c2ccccc2)nc(N)c1C#N", "inhibition at 10 µM [%]": 30}
{"smiles structure": "Cn1cccc1-c1cc(-c2ccccc2)c(C#N)c(N)n1", "inhibition at 10 µM [%]": 48}
{"smiles structure": "N#Cc1c(C2CCCCC2)cc(-c2ccccc2F)nc1N", "inhibition at 10 µM [%]": 34}
{"smiles structure": "N#Cc1c(C2CCCCC2)cc(-c2cccs2)nc1N", "inhibition at 10 µM [%]": 45}
{"smiles structure": "COc1ccc(-c2cc(-c3ccco3)nc(N)c2C#N)cc1", "inhibition at 10 µM [%]": 30}
{"smiles structure": "COc1ccccc1-c1cc(-c2ccco2)nc(N)c1C#N", "inhibition at 10 µM [%]": 30}
{"smiles structure": "N#Cc1c(-c2ccc(O)cc2)cc(-c2ccc(O)cc2)nc1N", "inhibition at 10 µM [%]": 38}
{"smiles structure": "COc1ccc(-c2cc(-c3ccccc3C)nc(N)c2C#N)cc1", "inhibition at 10 µM [%]": 55}
{"smiles structure": "N#Cc1c(-c2ccccc2)cc(-c2nccs2)nc1N", "inhibition at 10 µM [%]": 36}
{"smiles structure": "COc1ccc(-c2cc(-c3ccccc3F)nc(N)c2C#N)cc1", "inhibition at 10 µM [%]": 20}
{"smiles structure": "Cc1ccccc1-c1cc(C2CCCCC2)c(C#N)c(N)n1", "inhibition at 10 µM [%]": 35}
{"smiles structure": "COc1ccccc1-c1cc(-c2ccccc2F)nc(N)c1C#N", "inhibition at 10 µM [%]": 42}
